- ASSAY_NAME: Human HepG2 cell viability assay in 384 well format
- Assay type: toxicity, cell-based
- Design: dose 125 nL, time 70.5 hour; concentration not given beside the values
- TEST_PARAMETERS: HepG2 cells, read-out: Inhibition
RESULT_TYPE: cytotoxicity at 70.5 h (%)
Please respond with the number in % and leave the unit unwritten.

GET /values?readout=cytotoxicity at 70.5 h&item= O=C(c1cnnn1-c1ccccc1)N1CCCC(c2ccn[nH]2)C1 (stereo not drawn)
48.8

Then this compound: "CCc1nc2c(N3CCC4(CC3)CC(=O)N(CC)C4)ncnc2o1"
-1.14

Subsequent entry: CNc1ncccc1CN1CCN(C(C)=O)CC(C(N)=O)C1 (stereo not drawn)
-4.74

Cool, now O=C(CCc1ccccc1)C1CCCN(Cc2cncn2C2CC2)C1 (stereo not drawn)
2.12

What about "CC(C)c1ncc2c(n1)CN(CC(=O)Nc1ccc(Cl)cn1)CC2" ?
-10.8

Now give it for CC(C)OC(C)c1nnc(SCC(=O)O)n1-c1ccc(F)cc1F (stereo not drawn) too.
-6.19

Can you handle CC(C)c1nccn1-c1nccnc1C1CCCN1Cc1ccccc1 (stereo not drawn) next?
-6.32

What about CNc1nc(C)c(C(=O)N2CCC(C(O)Cc3ccccc3)CC2)s1 (stereo not drawn) ?
-11.8

And what about the compound "CCCc1cc(C(=O)N[C@@H]2CCC[C@@H](N3CCCC3)[C@@H]2O)no1" ?
-4

Item: "Cc1cc(C(=O)NCCc2nc3c(s2)CCCC3)n(C)n1"
-3.4

Please do the same for "COc1ccc(CCC(=O)N(C)Cc2c(C)nn(C)c2C)cc1" as well.
1.57

And the next one, "CCOC(=O)C1CCN(c2cc(C(=O)N3CCCCC3)nc(C)n2)CC1" ?
-8.82

And "Cc1cc(N2CCC(O)(CN(C)C(=O)CCN)CC2)c2cnccc2n1" ?
-5.17

Next compound up: O=S(=O)(CCNC1CCc2ncnn2C1)c1ccccc1 (stereo not drawn)
-2.34

Request: "Cc1[nH]c2c(C)ccc(C)c2c1CC(=O)NCc1csc(N(C)C)n1"
17.8

Entry to check: "Cc1cccc(OC2CCN(C(=O)NCCn3ccnc3)CC2)c1C"
-3.44

What about this compound? "CN1CCO[C@H]2CN(C(=O)c3ccncc3F)C[C@H]21"
-3.39

Similarly, "CCn1cc(C(=O)N2CCCN(c3cccnn3)CC2)c2ccccc21" ?
14.2

Same question, CCc1nc(CN2CCOC(Cn3cncn3)C2)no1 (stereo not drawn) this time
16.6

And "Cc1ccoc1C(=O)N1CC[C@@H]2CN(C3CCOCC3)CCO[C@@H]2C1" ?
-0.955

Same lookup for "O=C(NCCN1CCCCC1)c1ccoc1" , please.
17.6

"CCS(=O)(=O)c1ccc(N2CCC(NC(=O)CCC(C)C)CC2)cc1" , same question.
-9.09

Queued: COCC1CCN(C(=O)c2cccc(S(=O)(=O)NCC3(C)COC3)c2)C1 (stereo not drawn)
-3.93

* * *

Give measured cytotoxicity at 70.5 h for each item. Keep answers brief.
- ASSAY_NAME: Human HepG2 cell viability assay in 384 well format
- Type: toxicity, cell-based
- Parameters: dose 125 nL, time 70.5 hour; concentration not given beside the values
- TEST_PARAMETERS: HepG2 cells, read-out: Inhibition
Please format your answer as a value with the unit trailing.

Given the entry "CNc1nc(C(=O)N2C[C@H]3CC[C@@H]2CN(C2CCOCC2)C3)cs1" , report its measured cytotoxicity at 70.5 h.
-10.2%

What about Cc1cc(C)c2nc(C)cc(C(=O)N3CC(O)CO3)c2c1 (configuration not stated) ?
17.6%

Note, next up: "COCC(=O)N1CCCn2c(CN3CCCC3=O)nnc2C1"
-8.38%

How about CN(C)C(=O)CN1CCCC(c2cncc(-c3cccc(Cl)c3)n2)C1 (configuration not stated) ?
-1.23%

Cool, now "Cc1nn(C)c(N2CCOCC2)c1CNC1CCN(C2CC2)CC1"
-6.05%

Now the compound "COC(=O)Nc1ccc(CNc2cncc(-n3cccn3)n2)cc1"
-18.2%

Would you kindly repeat that for "CC(C)Oc1ncnc2c1CCN(Cc1ccoc1)CC2" ?
-0.464%

Moving on to the next compound: "Cc1c(Cl)cccc1NC(=O)Cn1cc(C(=O)O)ccc1=O"
-10.5%

"NC(=O)CCSCc1cc(Br)cc2cccnc12" ?
10.9%

Next record, please: "Cc1ccc2nc(C(=O)N3CC(c4cccnc4)C3)cn2c1"
-6.09%

Then what about the compound COC(=O)c1sc(C(NC(=O)c2ccccc2)C2CC2)nc1C (configuration not stated) ?
-3.65%

Same question for CCC1CN(c2cnn(C)c(=O)c2Br)CCO1 (configuration not stated) please.
-1.58%

* * *

- ASSAY_NAME: Human HepG2 cell viability assay in 384 well format
- Type: toxicity, cell-based
- Design: dose 125 nL, time 70.5 hour; concentration not given beside the values
- TEST_PARAMETERS: HepG2 cells, read-out: Inhibition
RESULT_TYPE: cytotoxicity at 70.5 h (%)
Numeric answer only, unit % assumed.

I am curious: what cytotoxicity at 70.5 h value has been reported for O=C(c1cnc(O)cn1)N1CCCC1c1nc2cc(F)ccc2[nH]1 (centres undefined) ?
-4.45

What would you report for "Cc1cc(-c2cnc(C3CC3)nc2CN(C)C(=O)c2ccccn2)on1" ?
-2.22

Okay, and "O=C(c1cccs1)N1CC[C@@H]2[C@H]1CCC(=O)N2c1ccccc1" ?
-16.9

Do the same for Cc1nc(C(=O)N2CCC3(CC2)CC(=O)N(CC2CCCO2)C3)cs1 (centres undefined) please
-9.89

Try this compound too: CN(Cc1cccnc1)CC1CCOc2ccccc2C1 (centres undefined)
-5.68

Please give the result for CC1(c2ncc(CN3CCSCC3)cn2)CCCCO1 (centres undefined) too.
-11.9

Further, for "Cc1ccccc1OCCC(=O)N1CCC(c2nncn2C)CC1" ?
-0.859

Likewise for COCCN1CC2(CCCN(c3ncc(Cl)cc3F)C2)CCC1=O (centres undefined) ?
3.19

// query: "Cc1ncsc1CN1C[C@H](C(=O)NCC2CC2)[C@@H]2CCO[C@@H]2C1"
-7.28

Field entry: COc1ccc(CCC(=O)N2CCCC2Cn2cc(C)cn2)cc1F (centres undefined)
-6.64

Cool, now Cc1nc(CN2CCCC(N(C)CCc3ccncc3)C2)no1 (centres undefined)
17.8

Try this compound too: "Cc1ccsc1C(=O)N1CCC2(CC1)C(=O)N(C)CCN2CC1CC1"
-12.8

Now this one: "Cc1noc(C)c1CSCc1nc(N)c2ccccc2n1"
0.626

Next record, please: CCc1nc(CN2CCCC(N(C)Cc3cnn(C)c3)C2)no1 (centres undefined)
-10.2

Can you check "Cc1noc(C)c1CN(C)C(=O)NC1CCN(C2CC2)CC1" next?
-2.65

Queued: COCC1c2c(cnn2C)CCN1Cc1ccoc1 (centres undefined)
-3.89

Likewise for COc1ccc(-c2nnc(CN3CCCC3Cn3cncn3)o2)cc1 (centres undefined) ?
15.3

Further, for "O=C(O)CCC(=O)N1CCC(c2noc3cc(F)ccc23)CC1" ?
-10.8

Item: CCc1ncc(C(=O)N2CCCOC(Cn3cccn3)C2)cn1 (centres undefined)
-0.891

Param item: "CC(C)(C)C(=O)N1CC[C@H]2NC(=O)N(c3ccc(F)cc3)C(=O)[C@H]21"
-4.77

Again, but for c1ncn(CC2CN(CCCOc3ccc4c(c3)OCO4)CCO2)n1 (centres undefined)
-4.94

What do we get for "O=C(NC1CCCCC1)c1cc(Br)cnc1N1CCCCC1" ?
-4.56

Proceed to "CCOC(=O)C1(CCOC)CCN(Cc2nccn2CC)CC1"
-7.56

Ok, now "Cc1cnn(CCCn2c(C)cc(C(F)(F)F)cc2=O)c1"
-9.21

* * *

- ASSAY_NAME: Human HepG2 cell viability assay in 384 well format
- Assay type: toxicity, cell-based
- Set-up: dose 125 nL, time 70.5 hour; concentration not given beside the values
- TEST_PARAMETERS: HepG2 cells, read-out: Inhibition
RESULT_TYPE: cytotoxicity at 70.5 h (%)
Numeric only. Scale: %

Sample C[S+]([O-])CCNC(=O)N1CCSC(C)(C)C1 (stereo unspecified) — what was its cytotoxicity at 70.5 h?
-1.1

How about this molecule: CC(C#N)CN(C)C(=O)CCNC(=O)OC(C)(C)C (stereo unspecified)
-6.35

Okay, and O=S(=O)(Cc1cccc(Cl)c1)CC(O)Cn1cccn1 (stereo unspecified) ?
-5.5

Param item: "O=C(O)[C@]12CCCN(Cc3ccsc3)C[C@H]1CN(c1ccccn1)C2"
13.5

Another molecule: "O=C(c1ccc(F)cc1)N1CCN2C[C@H](Oc3cccnc3)C[C@H]2C1"
0.416

Would you kindly repeat that for "CN(CC(F)F)C(=O)c1cn(-c2ccc(Br)cc2)cn1" ?
3.66
